Tested on: green foxtail (Setaria viridis, SETVI)
runDescription: Greenhouse herbicide screen, pre-emerge application, phytotoxicity rating
Type: in vivo
reportedConditions: PRE emergent, 63 g ai/ha, 14 days after application, rating scale 0-100
assayMetric: phytotoxicity rating SETVI
Numbers only.

Example compounds with recorded phytotoxicity rating SETVI:
[[record]]
compound = "Cn1c(C(F)(F)F)cc(=O)n(-c2cc(C(=O)NN=C(c3ccccc3)c3ccccc3)c(Cl)cc2F)c1=O"
assayedtarget = "green foxtail (Setaria viridis, SETVI)"
assaymetric = "phytotoxicity rating SETVI"
recordedresult = 75

[[record]]
compound = "CC(=O)OC(=NN(C)C)c1cc(-n2c(=O)cc(C(F)(F)F)n(C)c2=O)ccc1Cl"
assayedtarget = "green foxtail (Setaria viridis, SETVI)"
assaymetric = "phytotoxicity rating SETVI"
recordedresult = 50

[[record]]
compound = "CC1CCCC(C)N1NC(=O)c1cc(-n2c(=O)cc(C(F)(F)F)n(C)c2=O)c(F)cc1Cl (stereo not drawn)"
assayedtarget = "green foxtail (Setaria viridis, SETVI)"
assaymetric = "phytotoxicity rating SETVI"
recordedresult = 90


Dear colleague, could you send me phytotoxicity rating SETVI for each of the items below? Thanks.
1. Cn1c(C(F)(F)F)cc(=O)n(-c2cc(C(=O)NN3CCCC3)c(Cl)cc2F)c1=O
2. CN(N=C(C(C)(C)C)C(C)(C)C)C(=O)c1cc(-n2c(=O)cc(C(F)(F)F)n(C)c2=O)c(F)cc1Cl
3. COC(=NN=C(C(C)(C)C)C(C)(C)C)c1cc(-n2c(=O)cc(C(F)(F)F)n(C)c2=O)c(F)cc1Cl

1. 50
2. 55
3. 95

----------
Tested on: redroot pigweed (Amaranthus retrofiexus, AMARE)
runDescription: Greenhouse herbicide screen, post-emerge application, phytotoxicity rating
Assay type: in vivo
reportedConditions: POST emergent, 63 g ai/ha, 14 days after application, scale 0-100 (0 no damage, 100 complete death)
assayMetric: phytotoxicity rating AMARE

Solved cases below.
[[record]]
molecule = "CC(=O)OC(=NN(C)C)c1cc(-n2c(=O)cc(C(F)(F)F)n(C)c2=O)ccc1Cl [Compound 4-4]"
recordedresult = 100

[[record]]
molecule = "COC(=NN=C(C(C)(C)C)C(C)(C)C)c1cc(-n2c(=O)cc(C(F)(F)F)n(C)c2=O)c(F)cc1Cl [Compound 5-6]"
recordedresult = 100

[[record]]
molecule = "CN1CCN(NC(=O)c2cc(-n3c(=O)cc(C(F)(F)F)n(C)c3=S)c(F)cc2Cl)CC1 [Compound 1-14]"
recordedresult = 0

[[record]]
molecule = "C#CCOC(=NN=C(C(C)(C)C)C(C)(C)C)c1cc(-n2c(=O)cc(C(F)(F)F)n(C)c2=O)c(F)cc1Cl [Compound 5-7]"
recordedresult = 70

[[record]]
molecule = "Cn1c(C(F)(F)F)cc(=O)n(-c2cc(C(=O)NN(Cc3ccccc3)Cc3ccccc3)c(Cl)cc2F)c1=O [Compound 1-29]"
recordedresult = 100


List phytotoxicity rating AMARE for every entry below, keeping the order given.
1. Cn1c(C(F)(F)F)cc(=O)n(-c2cc(C(=O)NN3CCCC3)c(Cl)cc2F)c1=O [Compound 1-11]
2. CC(=O)OC(=NN=C(C)C(C)(C)C)c1cc(-n2c(=O)cc(C(F)(F)F)n(C)c2=O)c(F)cc1Cl [Compound 5-2]
3. Cn1c(C(F)(F)F)cc(=O)n(-c2cc(C(=O)NNC(=O)OC(C)(C)C)c(Cl)cc2F)c1=O [Compound 1-24]

1. 100
2. 95
3. 100

----------
Record form. Attribute: phytotoxicity rating XANST. Fill in for each entry.
System: cocklebur (Xanthium strumarium, XANST)
runDescription: Greenhouse herbicide screen, pre-emerge application, phytotoxicity rating
Format: in vivo
reportedConditions: PRE emergent, 250 g ai/ha, 14 days after application, rating scale 0-100

// batch mode: one phytotoxicity rating XANST value per listed entry
1. C#CCOC(=NN=C(C(C)(C)C)C(C)(C)C)c1cc(-n2c(=O)cc(C(F)(F)F)n(C)c2=O)c(F)cc1Cl
2. CC1CCCC(C)N1NC(=O)c1cc(-n2c(=O)cc(C(F)(F)F)n(C)c2=S)c(F)cc1Cl (stereo not drawn)
3. CC(=O)OC(=NN(C)C)c1cc(-n2c(=O)cc(C(F)(F)F)n(C)c2=O)ccc1Cl

[0, 100, 60]

----------
System: cocklebur (Xanthium strumarium, XANST)
runDescription: Greenhouse herbicide screen, post-emerge application, phytotoxicity rating
Type: in vivo
reportedConditions: POST emergent, 250 g ai/ha, 14 days after application, scale 0-100
// classify: if (phytotoxicity rating XANST < 90) yes else no

[[record]]
compound = "CN(C)NC(=O)c1cc(-n2c(=O)cc(C(F)(F)F)n(C)c2=O)ccc1Cl"
classassignment = "no"

[[record]]
compound = "CN1CCN(NC(=O)c2cc(-n3c(=O)cc(C(F)(F)F)n(C)c3=S)c(F)cc2Cl)CC1"
classassignment = "yes"


Criterion: phytotoxicity rating XANST strictly below 90. Is it met by Cn1c(C(F)(F)F)cc(=O)n(-c2cc(C(=O)NN=C(c3ccccc3)c3ccccc3)c(Cl)cc2F)c1=O ?
yes

Another: COC(=NN=C(C(C)(C)C)C(C)(C)C)c1cc(-n2c(=O)cc(C(F)(F)F)n(C)c2=O)c(F)cc1Cl
yes

Another compound to look at: CN(NC(=O)c1cc(-n2c(=O)cc(C(F)(F)F)n(C)c2=O)c(F)cc1Cl)c1ccccc1
no

----------
System: field corn (Zea mays L., var. Dekalb 535, CORN)
runDescription: Greenhouse herbicide screen, pre-emerge application, crop damage rating
Assay type: in vivo
reportedConditions: PRE emergent, 250 g ai/ha, 14 days after application, rating scale 0-100
assayMetric: crop damage rating CORN
Numbers only.

Lab note: each compound below needs its crop damage rating CORN filled in.
1. Cn1c(C(F)(F)F)cc(=O)n(-c2cc(C(=O)NN3CCCC3)c(Cl)cc2F)c1=O
2. Cn1c(C(F)(F)F)cc(=O)n(-c2cc(C(=O)NN(Cc3ccccc3)Cc3ccccc3)c(Cl)cc2F)c1=O
3. Cn1c(C(F)(F)F)cc(=O)n(-c2cc(C(=O)NN=C(c3ccccc3)c3ccccc3)c(Cl)cc2F)c1=O
4. CC(=O)OC(=NN1C(C)CCCC1C)c1cc(-n2c(=O)cc(C(F)(F)F)n(C)c2=O)c(F)cc1Cl (centres unmarked)
5. CCOC(=O)NNC(=O)c1cc(-n2c(=O)cc(C(F)(F)F)n(C)c2=O)c(F)cc1Cl
6. CC1CCCC(C)N1N=C(OC(=O)C(Cl)Cl)c1cc(-n2c(=O)cc(C(F)(F)F)n(C)c2=O)c(F)cc1Cl (centres unmarked)

1. 50
2. 50
3. 0
4. 95
5. 100
6. 50

For each listed entry, give its crop damage rating CORN.
1. CN(NC(=O)c1cc(-n2c(=O)cc(C(F)(F)F)n(C)c2=O)c(F)cc1Cl)c1ccccc1
2. CN1CCN(NC(=O)c2cc(-n3c(=O)cc(C(F)(F)F)n(C)c3=S)c(F)cc2Cl)CC1
3. C#CCOC(=NN=C(C(C)(C)C)C(C)(C)C)c1cc(-n2c(=O)cc(C(F)(F)F)n(C)c2=O)c(F)cc1Cl

[75, 0, 10]

----------
Test system: redroot pigweed (Amaranthus retrofiexus, AMARE)
runDescription: Greenhouse herbicide screen, post-emerge application, phytotoxicity rating
Assay type: in vivo
reportedConditions: POST emergent, 63 g ai/ha, 14 days after application, scale 0-100 (0 no damage, 100 complete death)
assayMetric: phytotoxicity rating AMARE
Answers are plain numbers.

[[record]]
molecule = "CN(C)NC(=O)c1cc(-n2c(=O)cc(C(F)(F)F)n(C)c2=O)ccc1Cl"
assaymetric = "phytotoxicity rating AMARE"
recordedresult = 100

[[record]]
molecule = "CC1CCCC(C)N1NC(=O)c1cc(-n2c(=O)cc(C(F)(F)F)n(C)c2=S)c(F)cc1Cl (stereo not drawn)"
assaymetric = "phytotoxicity rating AMARE"
recordedresult = 90

[[record]]
molecule = "Cn1c(C(F)(F)F)cc(=O)n(-c2cc(C(=O)NN=C(C(C)(C)C)C(C)(C)C)c(Cl)cc2F)c1=O"
assaymetric = "phytotoxicity rating AMARE"
recordedresult = 100

[[record]]
molecule = "CC(=NN=C(OC(=O)C(Cl)Cl)c1cc(-n2c(=O)cc(C(F)(F)F)n(C)c2=O)c(F)cc1Cl)C(C)(C)C"
assaymetric = "phytotoxicity rating AMARE"
recordedresult = 95

[[record]]
molecule = "CC(=NNC(=O)c1cc(-n2c(=O)cc(C(F)(F)F)n(C)c2=O)c(F)cc1Cl)C(C)(C)C"
assaymetric = "phytotoxicity rating AMARE"
recordedresult = 70


# ---- query molecule ----
Form field: phytotoxicity rating AMARE recorded for CN(NC(=O)c1cc(-n2c(=O)cc(C(F)(F)F)n(C)c2=O)c(F)cc1Cl)c1ccccc1 with redroot pigweed (Amaranthus retrofiexus, AMARE) (enter value)
100
